assay.endpoint: melting point

// worked examples, melting point included
CS(=O)(=O)c1ccc(-c2nc(/C=C/c3ccccc3)[nH]c2-c2ccc(F)cc2)cc1 [Example 3] : 221 to 224 °C
CS(=O)(=O)c1ccc(-c2[nH]c(C(=O)C(F)(F)F)nc2-c2ccc(F)cc2)cc1 [Example 89] : 291.7 °C
Cc1cc(C)cc(-c2[nH]c(C(F)(F)F)nc2-c2ccc(S(C)(=O)=O)cc2)c1 [Example 46] : 255 to 257 °C
COCc1nc(-c2ccc(S(C)(=O)=O)cc2)c(-c2ccc(F)cc2)[nH]1 [Example 79] : 169 °C
CS(=O)(=O)c1ccc(-c2nc(C(F)(F)F)[nH]c2-c2cccs2)cc1 [Example 70] : 95 to 97 °C

Q: // fetch melting point given entry CS(=O)(=O)c1ccc(-c2nc(C(F)(F)F)[nH]c2-c2cccc(F)c2)cc1 [Example 66]
Ans: 225 to 229 °C

Q: Let me know recorded melting point for CS(=O)(=O)c1ccc(-c2nc(C(F)(F)F)[nH]c2C2CCCCCC2)cc1 [Example 72] , thanks.
Ans: 206 to 207 °C

Q: Please look at this compound and report its melting point: CS(=O)(=O)c1ccc(-c2[nH]c(S)nc2-c2ccc(F)cc2)cc1 [Example 49]
Ans: 158 to 161 °C

Q: Output melting point of COc1cccc(-c2[nH]c(C(F)(F)F)nc2-c2ccc(S(C)(=O)=O)cc2)c1 [Example 65]
Ans: 202 to 208 °C

Q: Tell us which melting point value is on record for CS(=O)(=O)c1ccc(-c2nc(C(F)(F)F)[nH]c2-c2ccc(Br)s2)cc1 [Example 47]
Ans: 261 to 262 °C

Q: Write down melting point measured for item Cc1ccc(-c2[nH]c(C(F)(F)F)nc2-c2ccc(S(C)(=O)=O)cc2)cc1F [Example 56]
Ans: 251 to 252 °C

Q: Write down melting point measured for item Cc1ccc(-c2[nH]c(C(F)(F)F)nc2-c2ccc(S(C)(=O)=O)cc2)cc1 [Example 16]
Ans: 234 to 238 °C

====

# tgt: Human COX II (Homo sapiens)
# Construct: A 2.0 kb fragment containing the coding region of either human or murine COX-I or human or murine COX-II
# Sequence (P35354 18-604): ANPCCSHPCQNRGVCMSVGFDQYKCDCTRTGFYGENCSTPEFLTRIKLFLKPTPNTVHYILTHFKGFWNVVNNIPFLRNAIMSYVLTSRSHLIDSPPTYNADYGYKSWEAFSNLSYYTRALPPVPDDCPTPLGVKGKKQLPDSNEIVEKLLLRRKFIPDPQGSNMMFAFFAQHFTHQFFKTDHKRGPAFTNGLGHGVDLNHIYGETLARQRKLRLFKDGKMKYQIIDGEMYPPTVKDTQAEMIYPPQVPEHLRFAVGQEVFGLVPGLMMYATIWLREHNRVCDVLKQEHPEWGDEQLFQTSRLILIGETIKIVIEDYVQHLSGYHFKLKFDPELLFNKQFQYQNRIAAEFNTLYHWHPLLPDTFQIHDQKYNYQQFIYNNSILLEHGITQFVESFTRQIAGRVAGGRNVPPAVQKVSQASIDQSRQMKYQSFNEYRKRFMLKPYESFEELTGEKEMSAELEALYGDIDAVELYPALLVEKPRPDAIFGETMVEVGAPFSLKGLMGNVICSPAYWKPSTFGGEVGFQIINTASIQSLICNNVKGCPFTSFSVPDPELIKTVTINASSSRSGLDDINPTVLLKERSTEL
# test: COX II activity in vitro (PGE2 ELISA, recombinant enzyme)
# stated.conditions: arachidonic acid 10 μM, pre-incubation 10-20 minutes; read-out: Human COX II ID50
pIC50: −log10 of the molar value.
assay.endpoint: pIC50

(A) CS(=O)(=O)c1ccc(-c2[nH]c(C(=O)CCc3ccccc3)nc2-c2ccc(F)cc2)cc1
(B) COc1ccc(-c2[nH]c(C(F)(F)F)nc2-c2ccc(S(C)(=O)=O)cc2)cc1F
Q: Could you check which of A and B has a smaller value for pIC50? Respond with the label that goes with your answer.
Ans: B

(A) CS(=O)(=O)c1ccc(-c2nc(CO)[nH]c2-c2ccc(F)cc2)cc1
(B) CS(=O)(=O)c1ccc(-c2[nH]c(COCc3ccccc3)nc2-c2ccc(F)cc2)cc1
(C) CS(=O)(=O)c1ccc(-c2nc(COc3ccccc3)[nH]c2-c2ccc(F)cc2)cc1
(D) CS(=O)(=O)c1ccc(-c2[nH]c(S(=O)(=O)c3ccccc3)nc2-c2ccc(F)cc2)cc1
Q: Ordering criterion: pIC50; begin with the maximum. Output the labels ranked as instructed.
Ans: C, B, D, A

Where these numbers come from: patent US6426360B1
